In this section, each of the compounds is paired with its reported MIC.
test system: Florfenicol-resistant Pasteurella multocida; test: Broth microdilution susceptibility testing (MIC), florfenicol-resistant Pasteurella multocida; type: cell-based; details: Pasteurella multocida; broth microdilution (NCCLS, 2002); florfenicol-resistant strain; read-out: Minimal inhibitory concentration against Florfenicol-resistant Pasteurella multocida
Just the number please, in µg/mL, no unit attached.

Take a look at these entries with their results.
>  <Compound>
O=C(N[C@H](CO)[C@H](O)c1ccc([N+](=O)[O-])cc1)C(Cl)Cl [Chloramphenicol, reference compound]

>  <Target Desc>
Florfenicol-resistant Pasteurella multocida

>  <Reading Unit>
µg/mL

>  <MIC>
16

$$$$
>  <Compound>
O=C(N[C@H](CF)[C@H](O)c1ccc(S(=O)(=O)CF)cc1)C(F)Cl (stereo partly drawn)

>  <Target Desc>
Florfenicol-resistant Pasteurella multocida

>  <Reading Unit>
µg/mL

>  <MIC>
4

$$$$
>  <Compound>
O=C(N[C@H](CF)[C@H](O)c1ccc(S(=O)(=O)CF)cc1)C(F)(F)F

>  <Target Desc>
Florfenicol-resistant Pasteurella multocida

>  <Reading Unit>
µg/mL

>  <MIC>
8

$$$$
>  <Compound>
O=C(N[C@H](CF)[C@H](O)c1ccc(S(=O)(=O)C(Cl)Cl)cc1)C(Cl)Cl

>  <Target Desc>
Florfenicol-resistant Pasteurella multocida

>  <Reading Unit>
µg/mL

>  <MIC>
4

$$$$

Look up MIC: O=C(N[C@H](CF)[C@H](O)c1ccc(S(=O)(=O)CF)cc1)C(Cl)Br (stereo partly drawn)
4

// returns reported MIC for input CC(=O)N[C@H](CF)[C@H](O)c1ccc(S(=O)(=O)CF)cc1
32

====

system: Florfenicol-resistant Pasteurella multocida; assay: Broth microdilution susceptibility testing (MIC), florfenicol-resistant Pasteurella multocida; type: cell-based; details: Pasteurella multocida; broth microdilution (NCCLS, 2002); florfenicol-resistant strain; read-out: Minimal inhibitory concentration against Florfenicol-resistant Pasteurella multocida
Measurement Kind: MIC

>  <Compound>
O=C(N[C@H](CF)[C@H](O)c1ccc(S(=O)(=O)C(F)F)cc1)C(Cl)Cl

>  <MIC>
2 µg/mL

$$$$
>  <Compound>
CS(=O)(=O)c1ccc([C@@H](O)[C@@H](CF)NC(=O)C(Cl)Cl)cc1 [Florfenicol, reference compound]

>  <MIC>
16 µg/mL

$$$$
>  <Compound>
[N-]=[N+]=NCC(=O)N[C@H](CF)[C@H](O)c1ccc(S(=O)(=O)CF)cc1

>  <MIC>
16 µg/mL

$$$$
>  <Compound>
O=C(N[C@H](CF)[C@H](O)c1ccc(S(=O)(=O)CF)cc1)C(Cl)Cl

>  <MIC>
2 µg/mL

$$$$
>  <Compound>
C[C@@H](N)C(=O)N[C@H](CF)[C@H](O)c1ccc(S(=O)(=O)CF)cc1

>  <MIC>
128 µg/mL

$$$$

Which MIC reading was recorded for the compound O=C(N[C@H](CF)[C@H](O)c1ccc(S(=O)(=O)CF)cc1)C(F)F ?
8 µg/mL

So what's the measured MIC for this one? NCC(=O)N[C@H](CF)[C@H](O)c1ccc(S(=O)(=O)CF)cc1
> 128 µg/mL

Give its MIC value. Item: N#CCC(=O)N[C@H](CF)[C@H](O)c1ccc(S(=O)(=O)CF)cc1
> 128 µg/mL

Values compiled from patent US7713950B2.
